Test system: AncSZ
method summary: phosphorylation enrichment, bacterial display (enrichment ratio); higher = better substrate or ligand; peptides without Tyr show the background;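 also: 11-residue human phosphosite peptides and single-mutation variants displayed on the E. coli surface, counted by deep sequencing, each peptide's frequency after selection divided by its frequency in the unselected input library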;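 also: frequency after pTyr selection over input frequency; kinase dosed for 20-30% of maximal phosphorylation in three min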
The threshold is inclusive: phosphorylation enrichment of exactly 1 counts as true; values below receive false.

| sequence content | classification |
| --- | --- |
| HVSISYDIPLT [GAB1_Y307_P311L] | true |

Task: Is it the case that KPLMPCMRFSR [SMARCE1_Y73_Y73C_YF] has phosphorylation enrichment reaching or exceeding 1?
Output: false

Task: Is it the case that HTVVSYAKVRA [CLOCK_Y378_E380K] has phosphorylation enrichment reaching or exceeding 1?
Output: true

###

// reported phosphorylation enrichment for each item listed
assay target: FGFR3 (UniProt P22607)
Sequence (P22607 whole entry, looked up): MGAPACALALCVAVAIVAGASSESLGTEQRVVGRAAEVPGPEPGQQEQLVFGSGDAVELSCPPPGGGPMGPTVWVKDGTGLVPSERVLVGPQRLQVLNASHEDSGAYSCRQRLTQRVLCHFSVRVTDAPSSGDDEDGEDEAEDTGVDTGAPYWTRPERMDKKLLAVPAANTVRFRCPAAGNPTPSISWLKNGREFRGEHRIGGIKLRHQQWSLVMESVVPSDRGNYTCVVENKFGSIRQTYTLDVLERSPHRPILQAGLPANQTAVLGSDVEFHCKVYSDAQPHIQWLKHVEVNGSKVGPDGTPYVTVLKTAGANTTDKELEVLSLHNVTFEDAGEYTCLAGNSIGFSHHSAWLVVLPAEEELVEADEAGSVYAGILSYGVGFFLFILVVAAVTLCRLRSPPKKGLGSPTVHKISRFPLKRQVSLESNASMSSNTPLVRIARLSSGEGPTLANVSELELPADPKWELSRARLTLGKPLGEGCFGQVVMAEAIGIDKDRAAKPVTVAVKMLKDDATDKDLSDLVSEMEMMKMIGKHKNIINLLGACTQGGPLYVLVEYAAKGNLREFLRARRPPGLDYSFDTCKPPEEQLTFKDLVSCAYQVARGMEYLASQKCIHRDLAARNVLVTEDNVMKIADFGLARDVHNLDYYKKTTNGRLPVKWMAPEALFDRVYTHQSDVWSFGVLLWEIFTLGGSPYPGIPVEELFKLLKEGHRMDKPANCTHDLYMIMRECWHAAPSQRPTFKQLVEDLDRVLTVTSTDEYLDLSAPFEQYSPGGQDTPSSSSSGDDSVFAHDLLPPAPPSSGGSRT
method summary: phosphorylation enrichment, bacterial display (enrichment ratio); higher = better substrate or ligand; peptides without Tyr show the background
Lab note: record just the number, no unit beside it.

| sequence content | assay target | reported property | recorded value |
| --- | --- | --- | --- |
| ADDSYYTVRSA [ZAP70_Y493_A495V] | FGFR3 (UniProt P22607) | phosphorylation enrichment | 5.2 |
| RGKLFYQEVPA [METTL11B_Y76_A72G] | FGFR3 (UniProt P22607) | phosphorylation enrichment | 1.29 |
| REVPVYTDSEP [FAM120B_Y368] | FGFR3 (UniProt P22607) | phosphorylation enrichment | 1.4 |

Task: // lookup phosphorylation enrichment | system=FGFR3 (UniProt P22607) | key= YRGYSYDDIPD [TMEM230_Y112]
Output: 0.662

Task: // lookup phosphorylation enrichment | system=FGFR3 (UniProt P22607) | key= KDHPDYKYQPR [SOX10_Y171]
Output: 0.481

Task: // lookup phosphorylation enrichment | system=FGFR3 (UniProt P22607) | key= KKHFSYAWPFY [BRDT_Y291]
Output: 0.564
